# target-of-assay: Dipeptidase 1 (Sus scrofa) (UniProt P22412)
# Sequence (P22412 whole entry): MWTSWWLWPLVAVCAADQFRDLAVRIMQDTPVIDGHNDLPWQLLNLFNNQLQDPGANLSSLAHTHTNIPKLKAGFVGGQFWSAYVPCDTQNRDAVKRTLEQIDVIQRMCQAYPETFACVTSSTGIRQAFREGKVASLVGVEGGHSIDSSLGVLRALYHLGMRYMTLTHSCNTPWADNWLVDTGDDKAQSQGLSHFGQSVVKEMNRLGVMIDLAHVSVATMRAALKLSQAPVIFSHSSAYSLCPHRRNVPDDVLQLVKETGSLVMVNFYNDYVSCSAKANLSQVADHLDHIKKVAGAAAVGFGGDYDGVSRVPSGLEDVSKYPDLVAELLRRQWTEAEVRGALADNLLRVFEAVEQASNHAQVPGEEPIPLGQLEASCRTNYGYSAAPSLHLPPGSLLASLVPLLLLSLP
# assay-protocol: Relative t1/2 hydrolysis to meropenem by partially purified porcine renal DHP-1
# Type: functional
endpoint-label: Relative t1/2

Reference set (2 entries):
* C[C@@H](O)[C@H]1C(=O)N2C(C(=O)O)=C(S[C@@H]3CN[C@H](C4CC(CO)=NO4)C3)[C@H](C)[C@H]12 (stereo in doubt; form 1) | 1.09
* C[C@@H](O)[C@H]1C(=O)N2C(C(=O)O)=C(S[C@@H]3CN[C@H](C(=O)N(C)C)C3)[C@H](C)[C@H]12 [MEROPENEM] | 1

I = C[C@@H](O)[C@H]1C(=O)N2C(C(=O)O)=C(S[C@@H]3CN[C@H](C4CC[N+](C)(C)O4)C3)[C@H](C)[C@H]12.[Cl-] (stereo partly drawn)
II = C[C@@H](O)[C@H]1C(=O)N2C(C(=O)O)=C(S[C@@H]3CN[C@H](C4CC(CO)=NO4)C3)[C@H](C)[C@H]12 (stereo in doubt; form 2)
In: Sort I and II by Relative t1/2 descending and give the first. Answer format: the label of the selected item.
Out: I
(I: 1.5, II: 0.78)

a = CCOC(=O)C1=NOC([C@@H]2C[C@H](SC3=C(C(=O)O)N4C(=O)[C@H]([C@@H](C)O)[C@H]4[C@H]3C)CN2)C1 (stereo partly drawn)
b = C[C@@H](O)[C@H]1C(=O)N2C(C(=O)O)=C(S[C@@H]3CN[C@H](C4CC[N+](C)(CC(N)=O)O4)C3)[C@H](C)[C@H]12.[Cl-] (stereo partly drawn)
In: Could you check which of a and b has a smaller value for Relative t1/2? Answer format: the label of the selected item.
Out: a

a = C[C@@H](O)[C@H]1C(=O)N2C(C(=O)O)=C(S[C@@H]3CN[C@H](c4cc(CO)on4)C3)[C@H](C)[C@H]12
b = C[C@@H](O)[C@H]1C(=O)N2C(C(=O)O)=C(S[C@@H]3CN[C@H](C4CCN(C)O4)C3)[C@H](C)[C@H]12 (stereo partly drawn)
In: Could you check which of a and b has a smaller value for Relative t1/2? Answer format: the label of the selected item.
Out: a
(a: 0.8, b: 1.27)

----------
# System: Staphylococcus aureus
# assay-protocol: In vitro antibacterial activity against Staphylococcus aureus SG511
# Format: functional
# setup-conditions: Staphylococcus aureus; read-out: MIC
endpoint-label: MIC (µg/mL)

1 = C[C@@H](O)[C@H]1C(=O)N2C(C(=O)O)=C(S[C@@H]3CN[C@H](C4CC[N+](C)(CC(N)=O)O4)C3)[C@H](C)[C@H]12.[Cl-] (stereo partly drawn)
2 = C[C@@H](O)[C@H]1C(=O)N2C(C(=O)O)=C(S[C@@H]3CN[C@H](C4CC[N+](C)(C)O4)C3)[C@H](C)[C@H]12.[Cl-] (stereo partly drawn)
In: Could you check which of 1 and 2 has a smaller value for MIC? Answer format: the label of the selected item.
Out: 1
(1: 0.049 µg/mL, 2: 0.098 µg/mL)

----------
# Tested on: Klebsiella aerogenes
# assay-protocol: In vitro antibacterial activity against Klebsiella aerogenes 1522E
# Type: functional
# setup-conditions: Klebsiella aerogenes; read-out: MIC
endpoint-label: MIC (µg/mL)

P = C[C@@H](O)[C@H]1C(=O)N2C(C(=O)O)=C(S[C@@H]3CN[C@H](c4cc(CO)on4)C3)[C@H](C)[C@H]12
Q = C[C@@H](O)[C@H]1C(=O)N2C(C(=O)O)=C(S[C@@H]3CN[C@H](C4CC(CO)=NO4)C3)[C@H](C)[C@H]12 (stereo in doubt; form 1)
R = C[C@@H](O)[C@H]1C(=O)N2C(C(=O)O)=C(S[C@@H]3CN[C@H](C4CC[N+](C)(C)O4)C3)[C@H](C)[C@H]12.[Cl-] (some centres not stated)
In: From the records above, write out the order of decreasing MIC. Thanks in advance for listing the labels in the requested order.
Out: R, Q, P
(R: 0.195 µg/mL, Q: 0.098 µg/mL, P: 0.049 µg/mL)

I = CCOC(=O)C1=NOC([C@@H]2C[C@H](SC3=C(C(=O)O)N4C(=O)[C@H]([C@@H](C)O)[C@H]4[C@H]3C)CN2)C1 (some centres not stated)
II = C[C@@H](O)[C@H]1C(=O)N2C(C(=O)O)=C(S[C@@H]3CN[C@H](C4CC[N+](C)(CC(N)=O)O4)C3)[C@H](C)[C@H]12.[Cl-] (some centres not stated)
III = C[C@@H](O)[C@H]1C(=O)N2C(C(=O)O)=C(S[C@@H]3CN[C@H](C4CCN(C)O4)C3)[C@H](C)[C@H]12 (some centres not stated)
In: Task field, ranking: reported MIC, descending order. Thanks in advance for listing the labels in the requested order.
Out: II, III, I
(II: 0.195 µg/mL, III: 0.098 µg/mL, I: 0.049 µg/mL)
